Every entry's value here was drawn from ChEMBL document CHEMBL4118278.

What AUC(0-inf) was measured for each of the following?
# assayProcedure: AUC (0 to infinity) in CD-1 mouse at 5 mg/kg, po administered as single dose by LC-MS/MS analysis
# Format: ADME, organism-based
# Set-up: dose 5 mg/kg, route oral, time infinity
# appliedConditions: in vivo
One number for each entry, in ng·h/mL.

{"columns": ["chemicalSmiles", "unitLabel", "AUC(0-inf)"],
 "data": [
  ["[2H]c1cc(Cl)c(-c2nc([2H])c([2H])c([2H])c2[2H])c([2H])c1NC(=O)c1ccc(S(C)(=O)=O)cc1Cl", "ng·h/mL", 6110],
  ["[2H]c1nc(-c2cc(NC(=O)c3ccc(S(C)(=O)=O)cc3Cl)ccc2Cl)c([2H])c([2H])c1[2H]", "ng·h/mL", 17100],
  ["CS(=O)(=O)c1ccc(C(=O)Nc2ccc(Cl)c(-c3ccccn3)c2)c(Cl)c1", "ng·h/mL", 7660]
]}

// query AUC(0-inf) value for entry [2H]c1cc(Cl)c(-c2ccccn2)c([2H])c1NC(=O)c1ccc(S(C)(=O)=O)cc1Cl 8290

* * *

# assayProcedure: AUC (0 to t) in CD-1 mouse at 5 mg/kg, po administered as single dose by LC-MS/MS analysis
# Format: ADME, organism-based
# appliedConditions: in vivo
What AUC(0-t) was measured for each of the following?
Answers are plain numbers, in ng·h/mL.

{"columns": ["chemicalSmiles", "unitLabel", "AUC(0-t)"],
 "data": [
  ["[2H]c1cc(Cl)c(-c2ccccn2)c([2H])c1NC(=O)c1ccc(S(C)(=O)=O)cc1Cl", "ng·h/mL", 6280]
]}

// each listed compound needs a value for AUC(0-t)
1. [2H]c1nc(-c2cc(NC(=O)c3ccc(S(C)(=O)=O)cc3Cl)ccc2Cl)c([2H])c([2H])c1[2H]
2. [2H]c1cc(Cl)c(-c2nc([2H])c([2H])c([2H])c2[2H])c([2H])c1NC(=O)c1ccc(S(C)(=O)=O)cc1Cl

[6510, 6110]

// query AUC(0-t) value for entry CS(=O)(=O)c1ccc(C(=O)Nc2ccc(Cl)c(-c3ccccn3)c2)c(Cl)c1 4050

* * *

# assayProcedure: Cmax in CD-1 mouse at 5 mg/kg, po administered as single dose by LC-MS/MS analysis
# Assay type: ADME, organism-based
# Parameters: dose 5 mg/kg, route oral
# appliedConditions: in vivo
quantityKind: Cmax (ng/mL)
Answers are plain numbers, in ng/mL.

// each listed compound needs a value for Cmax
1. [2H]c1nc(-c2cc(NC(=O)c3ccc(S(C)(=O)=O)cc3Cl)ccc2Cl)c([2H])c([2H])c1[2H]
2. [2H]c1cc(Cl)c(-c2nc([2H])c([2H])c([2H])c2[2H])c([2H])c1NC(=O)c1ccc(S(C)(=O)=O)cc1Cl
3. CS(=O)(=O)c1ccc(C(=O)Nc2ccc(Cl)c(-c3ccccn3)c2)c(Cl)c1
4. [2H]c1cc(Cl)c(-c2ccccn2)c([2H])c1NC(=O)c1ccc(S(C)(=O)=O)cc1Cl

1. 1870
2. 972
3. 854
4. 1610

* * *

# assayProcedure: Half life in CD-1 mouse at 5 mg/kg, po administered as single dose by LC-MS/MS analysis
# Format: ADME, organism-based
# appliedConditions: in vivo
quantityKind: half-life (min)
Numbers only, in min.

Study these solved cases before continuing.
{"columns": ["chemicalSmiles", "half-life [min]"],
 "data": [
  ["CS(=O)(=O)c1ccc(C(=O)Nc2ccc(Cl)c(-c3ccccn3)c2)c(Cl)c1", 337],
  ["[2H]c1cc(Cl)c(-c2nc([2H])c([2H])c([2H])c2[2H])c([2H])c1NC(=O)c1ccc(S(C)(=O)=O)cc1Cl", 153],
  ["[2H]c1nc(-c2cc(NC(=O)c3ccc(S(C)(=O)=O)cc3Cl)ccc2Cl)c([2H])c([2H])c1[2H]", 513]
]}

# evaluate next
// query half-life value for entry [2H]c1cc(Cl)c(-c2ccccn2)c([2H])c1NC(=O)c1ccc(S(C)(=O)=O)cc1Cl 169
